Molecular target: T1, Human PIRT (phosphoinositide-interacting regulator of TRP), fluorescently labeled for MST (human, UniProt P0C851 1-137, fluorescently labeled (dye and site not stated; by the protocol of ref. 24))
T1 construct: Measured in 0.1% DPC micelles; The His tag is named only for the pull-down; also called MST labeled PIRT; source: purified
T1 sequence (P0C851 whole entry): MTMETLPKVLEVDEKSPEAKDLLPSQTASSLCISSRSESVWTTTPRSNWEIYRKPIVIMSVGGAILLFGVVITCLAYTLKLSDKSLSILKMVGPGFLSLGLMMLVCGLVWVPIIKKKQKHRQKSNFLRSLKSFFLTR
Test: MST; 200 nM fluorescently labeled PIRT, peptide hormone titrated; 0.1% DPC (w/v), 50 mM HEPES, pH 7.0; room temperature; triplicate
Details: both partners purified
Bridge positions count the residues as written; N and C are the ends. Ends that are not written are not given here.

- BINDER: "CYIQNCPLG-NH2 (peptide, UniProt P01178 20-28, looked up, disulfide 1-6, oxytocin, peptide hormone, cyclic nonapeptide cut from the oxytocin-neurophysin 1 precursor) [Oxytocin]"
  Kd [µM]: 7
